Test system: 926638-142-R-J1-PDC complex spheroid viability;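 also: spheroids exposed to drugs for one week before readout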
Assay: Anticancer human tumor 926638-142-R-J1-PDC patient-derived endometrial carcinoma cell line growth inhibition [POLQ]
Conditions: curve of first compound; second compound 0.1 µM
ASSAY_READOUT: IC50 (nM)
Dear colleague, please return just the value in nM, with no unit written.

Field: example entries. Status: answers known.
{"MOLECULE": "CCc1cc2c(N3CCc4c(cc(Cn5ccnc5)cc4-c4cn(C)nc4C(F)(F)F)C3=O)ccnc2c(OC)n1 + Nc1ccc(C#CCN(C(=O)Cc2ncc(C(F)(F)F)cc2C(F)(F)F)c2ccc(F)cc2)nn1", "MEASURE_UNIT": "nM", "MEASURED": 879}
{"MOLECULE": "CCc1cc2c(N3CCc4c(cc(Cn5ccnc5)cc4-c4cn(C)nc4C(F)(F)F)C3=O)ccnc2c(OC)n1 + Cc1cccc(N(C)C(=O)C2C(O)CCN2c2nc(C)cc(C(F)(F)F)c2C#N)c1", "MEASURE_UNIT": "nM", "MEASURED": 356}
{"MOLECULE": "Nc1ccn(C2OC(CO)C(O)C2(F)F)c(=O)n1 (stereo unspecified) + Nc1ccc(C#CCN(C(=O)Cc2ncc(C(F)(F)F)cc2C(F)(F)F)c2ccc(F)cc2)nn1", "MEASURE_UNIT": "nM", "MEASURED": 682}
{"MOLECULE": "CC1COCCN1c1cc(C2(S(C)(=N)=O)CC2)nc(-c2ccnc3[nH]ccc23)n1 (stereo unspecified) + COC1C(OC(N)=O)C(O)C(Oc2ccc3c(O)c(NC(=O)c4ccc(O)c(CC=C(C)C)c4)c(=O)oc3c2C)OC1(C)C", "MEASURE_UNIT": "nM", "MEASURED": 7870}
{"MOLECULE": "COc1cccc(OCCCN)c1-c1cc(Nc2cnc(C#N)cn2)n[nH]1 + Nc1ccc(C#CCN(C(=O)Cc2ncc(C(F)(F)F)cc2C(F)(F)F)c2ccc(F)cc2)nn1", "MEASURE_UNIT": "nM", "MEASURED": 112}

// next entry
**Q:** Please give the measured IC50 for this molecule: CCc1cc2c(N3CCc4c(cc(Cn5ccnc5)cc4-c4cn(C)nc4C(F)(F)F)C3=O)ccnc2c(OC)n1 + COC1C(OC(N)=O)C(O)C(Oc2ccc3c(O)c(NC(=O)c4ccc(O)c(CC=C(C)C)c4)c(=O)oc3c2C)OC1(C)C
**A:** 382
